Source: patent US20160130327A1

Kindly supply the reported EC50 values for the records listed here.
# tested target: T1, revertant virus (AD169 CMV with the pentameric gH complex restored)
# T1 construct: also called revertant virion; revertant virions
# experimental details: antibody-titration EIA, coated revertant virions
Just the number in µg/mL, nothing appended.

Lookup result for 240.8 (antibody, V domains shown, rabbit hybridoma mAb; also called clone 240.8) VH: QSVEESGGGLVTPGGTLTLTCGVSGIDLSANEMGWVRQAPGEGLEWIGTLSYHNIPHYATWAKGRFTISKTSTTVDLKITSPTSADTATYFCGRVFTSTSFDPWGPGTLVTISS VL: ELVMTHPPASVSAPVGGTVTIKCQASHNIGSRLPWYQQEPGQPPKLLIYRTSTLASGVPSRFTGSGYGTEFTLTISDLECADAATYYCQDHDDISHAFGGGTNVEIK ; measured EC50: 2.6

get_value(item= 212.6 (antibody, V domains shown, rabbit hybridoma mAb; also called clone 212.6) VH: QSLEESGGRLVTPGTPLTLTCTVSGFSLSSYAMSWVRQAPGKGLEWIGIIGSSGNTYYASWAKGRFTISKTSTTVDLKITSPTTEDTATYFCARGGYSYDDYTPFDLWGPGTLVTVSS VL: ELVLTQSPSLSASLGTTARLTCTLSTGYSVGKYPLVWLQQVPGRPPRYLLTYHTEEFKHQGSGVHSRFSGSKDTSENAGVLSISGLQPEDEADYYCATAHATESSLHYVFGGGTQLTVT , readout=EC50) returns 52.9
